Each recorded value in this set is attributed to PubChem BioAssay (NCI).

List of TGI values.
tested on: HT29 colon; experiment: NCI tumour cell line growth inhibition, 48 h

Some solved entries appear below for comparison.
COc1cccc(-c2cc(-c3ccc(Nc4nc(Nc5ccc(Cl)cc5)nc(Nc5ccc(Cl)cc5)n4)cc3)nc(N)c2C#N)c1	35.8 µM
O=P(c1ccccc1)(c1ccccc1)C1CC=C2CCCCCC2C1 (configuration not stated)	> 100 µM

Find the measured TGI: item Cc1c(CNc2ccc(Cl)c(Cl)c2Cl)cnc2nc(N)nc(N)c12 , target or system HT29 colon.
> 53.9 µM

Request: TGI, test system HT29 colon, entry COc1cc(CC2c3cc(OC)c(OC)cc3CCN2C)c(C(=O)O)cc1OC (configuration not stated)
> 100 µM

API: value(readout= TGI, system= HT29 colon, query= CCOP(=O)(OCC)/C(F)=C/c1ccc(F)cc1 )
> 100 µM

I'm curious: which TGI was measured for N#Cc1nc(CCC(C(=O)O)N2C(=O)c3ccccc3C2=O)oc1N (configuration not stated) tested on HT29 colon?
> 100 µM

Checklist item: TGI tested on HT29 colon, entry CS(=O)(=O)Sc1ccc(Cl)cc1 , value?
22.6 µM

* * *

tested on: 786-0 renal; assay: NCI tumour cell line growth inhibition, 48 h
Known TGI of a selection of compounds

Illustrative cases are given below, each with its answer.
COc1ccc(Cc2c3cc(OC)c(OC)cc3cc[n+]2C)cc1	> 29.7 µM
NS(=O)(=O)c1ccc(NNc2c3ccccc3nc3c(C(=O)Nc4ccc(S(N)(=O)=O)cc4)cccc23)cc1	> 100 µM
OC1(c2ccccc2)c2ccccc2N(c2ccccc2)c2ccc(Cl)cc21 (stereo not given)	0.68 µM
CC(=O)O[C@H]1CC[C@@]2(C)C(=CC[C@@H]3[C@@H]2CC[C@]2(C)C(=O)/C(=C\c4ccccc4)C[C@@H]32)C1	> 100 µM

Fill blank: measured TGI of the compound CN1CC[C@H](N(C)C(=O)N2CC(c3cc(F)ccc3F)=C[C@@]2(CO)c2ccccc2)[C@H](F)C1 is ____.
> 100 µM

* * *

system: BT-549 breast; test: NCI tumour cell line growth inhibition, 48 h
# GI50 annotations

COc1ccc2c(c1)OCC1c3cc(OC)ccc3OC21 (configuration not stated)	34.4 µM

Next compound, GI50 to be filled in.
Tell me reported GI50 for C=CN(C(=O)N1CCN(c2cc3c(cc2F)c(=O)c(C(=O)O)cn3C2CC2)CC1)c1nc(-c2ccc(C)cc2)cs1 , tested with BT-549 breast.
0.306 µM

* * *

test system: HCC-2998 colon; test: NCI tumour cell line growth inhibition, 48 h
Each record here notes measured GI50.

CCCCCCCCCCCCNC(=O)N[C@H](C(=O)N[C@H]1/C=C/OCCNC(=O)/C=C/[C@H](C(C)C)NC1=O)C(C)C	12.9 µM

Entry under review: CCN(CC)CCCC(C)Nc1ccnc2cc(OC)ccc12 (stereo not drawn) . Reported GI50?
14.7 µM

Which GI50 is listed for CCN(CC)c1ccc(C=C2C(=O)NC(=S)NC2=O)cc1 ?
1.99 µM

Entry Cc1cc(C)c(CNC(=O)c2cc(Cl)c3c(c2C)O[C@@](C)(C2CCC(N(C)C)CC2)O3)c(=O)[nH]1 (stereo partly drawn) has what GI50?
> 100 µM

GET /values?readout=GI50&item= C=C(C)[C@@H]1CC[C@]2(C(=O)OC)CC[C@]3(C)[C@H](CC[C@@H]4[C@@]5(C)CC/C(=N\OCCC(=NCCC#N)NOCCC#N)C(C)(C)[C@@H]5CC[C@]43C)[C@@H]12
13.8 µM

Item Cc1nn(-c2ccccc2)c2c1[C@@H](C)[C@H]1CC3(CC4(C)C[C@@H]3C1(C)c1c(C)nn(-c3ccccc3)c1N4C)N2C (stereo partly drawn) has what recorded GI50?
> 100 µM

Sample N#CCC1CCN(c2nc(Nc3ccc(N4CCC(O)CC4)cc3)c3c(=O)[nH]ncc3n2)CC1 — what was its GI50?
1.71 µM

What does the data say about its GI50? Entry: COc1ccc2c(c1)OCC1c3cc(OC)ccc3OC21 (stereo not drawn)
5.42 µM
